The measured values listed here are drawn from ChEMBL document CHEMBL4725393.

assay: Cmax in CD1 mouse assessed as pibrentasvir1 level at 6 mg/kg, po measured up to 24 hrs; format: ADME, organism-based; set-up: route oral, dose 6 mg/kg, time <=24; conditions: in vivo
Measured Cmax of individual entries
Write the number in ng/mL without appending the unit.

Completed entries (count: 4):
What Cmax value was documented for this compound, `COC(=O)N[C@H](C(=O)N1CCC[C@H]1c1nc2cc(F)c([C@H]3CC[C@H](c4cc5c(cc4F)nc([C@@H]4CCCN4C(=O)[C@@H](NC(=O)OC)[C@@H](C)OC)n5COC(=O)c4cccc(OP(=O)(O)O)c4)N3c3cc(F)c(N4CCC(c5ccc(F)cc5)CC4)c(F)c3)cc2[nH]1)[C@@H](C)OC` ?
46

# Cmax lookup, item `COC(=O)N[C@H](C(=O)N1CCC[C@H]1c1nc2cc(F)c([C@H]3CC[C@H](c4cc5c(cc4F)nc([C@@H]4CCCN4C(=O)[C@@H](NC(=O)OC)[C@@H](C)OC)n5COC(=O)N(C)c4ncccc4COP(=O)(O)O)N3c3cc(F)c(N4CCC(c5ccc(F)cc5)CC4)c(F)c3)cc2[nH]1)[C@@H](C)OC`
567

Any idea what its Cmax is? The compound is `COC(=O)N[C@H](C(=O)N1CCC[C@H]1c1nc2cc(F)c([C@H]3CC[C@H](c4cc5c(cc4F)nc([C@@H]4CCCN4C(=O)[C@@H](NC(=O)OC)[C@@H](C)OC)n5COC(=O)c4ccccc4COP(=O)(O)O)N3c3cc(F)c(N4CCC(c5ccc(F)cc5)CC4)c(F)c3)cc2[nH]1)[C@@H](C)OC`
132

Reported Cmax, compound `COC(=O)N[C@H](C(=O)N1CCC[C@H]1c1nc2cc(F)c([C@H]3CC[C@H](c4cc5nc([C@@H]6CCCN6C(=O)[C@@H](NC(=O)OC)[C@@H](C)OC)n(COC(=O)c6ccccc6COP(=O)(O)O)c5cc4F)N3c3cc(F)c(N4CCC(c5ccc(F)cc5)CC4)c(F)c3)cc2[nH]1)[C@@H](C)OC` : ____
622

Let us examine a further case.
For the compound `COC(=O)N[C@H](C(=O)N1CCC[C@H]1c1nc2cc(F)c([C@H]3CC[C@H](c4cc5nc([C@@H]6CCCN6C(=O)[C@@H](NC(=O)OC)[C@@H](C)OC)n(COC(=O)[C@@H](NC(=O)/C=C/C(=O)O)C(C)C)c5cc4F)N3c3cc(F)c(N4CCC(c5ccc(F)cc5)CC4)c(F)c3)cc2[nH]1)[C@@H](C)OC` , what Cmax is on record?
15

----------
Consider the following compounds and their measured AUC readings.
assay: AUC in beagle dog assessed as pibrentasvir1 level at 40 mg, po measured up to 24 hrs; format: ADME, organism-based, Canis lupus familiaris; set-up: route oral, dose 40 mg, time <=24; details: in vivo
Unit ng·h/mL implied. Number only.

Which AUC value is on record for `COC(=O)N[C@H](C(=O)N1CCC[C@H]1c1nc2cc([C@H]3CC[C@H](c4cc5nc([C@@H]6CCCN6C(=O)[C@@H](NC(=O)OC)[C@@H](C)OC)n(COP(=O)(O)O)c5cc4F)N3c3cc(F)c(N4CCC(c5ccc(F)cc5)CC4)c(F)c3)c(F)cc2n1COP(=O)(O)O)[C@@H](C)OC` ?
355

Look up AUC for this compound: `COC(=O)N[C@H](C(=O)N1CCC[C@H]1c1nc2cc(F)c([C@H]3CC[C@H](c4cc5nc([C@@H]6CCCN6C(=O)[C@@H](NC(=O)OC)[C@@H](C)OC)n(COC(=O)[C@@H](NC(=O)COP(=O)(O)O)C(C)C)c5cc4F)N3c3cc(F)c(N4CCC(c5ccc(F)cc5)CC4)c(F)c3)cc2[nH]1)[C@@H](C)OC`
1210

Attention now shifts to the item below.
// returns reported AUC for input `COC(=O)N[C@H](C(=O)N1CCC[C@H]1c1nc2cc(F)c([C@H]3CC[C@H](c4cc5nc([C@@H]6CCCN6C(=O)[C@@H](NC(=O)OC)[C@@H](C)OC)n(COC(=O)[C@@H](NC(=O)OCOP(=O)(O)O)C(C)C)c5cc4F)N3c3cc(F)c(N4CCC(c5ccc(F)cc5)CC4)c(F)c3)cc2[nH]1)[C@@H](C)OC`
122

----------
experiment: Equilibrium solubility of compound at pH 7.4 incubated for 24 to 48 hrs by HPLC analysis; type: physicochemical; settings: buffer, time 24-48 hrs
Catalogue of molecules with associated solubility thermodynamic

Example molecules with recorded solubility thermodynamic:
Fill blank: measured solubility thermodynamic of the molecule `COC(=O)N[C@H](C(=O)N1CCC[C@H]1c1nc2cc(F)c([C@H]3CC[C@H](c4cc5nc([C@@H]6CCCN6C(=O)[C@@H](NC(=O)OC)[C@@H](C)OC)n(COC(=O)Cc6ccccc6OP(=O)(O)O)c5cc4F)N3c3cc(F)c(N4CCC(c5ccc(F)cc5)CC4)c(F)c3)cc2[nH]1)[C@@H](C)OC` is ____.
< 0.2 µg/mL

Value lookup for solubility thermodynamic; key = `COC(=O)N[C@H](C(=O)N1CCC[C@H]1c1nc2cc(F)c([C@H]3CC[C@H](c4cc5c(cc4F)nc([C@@H]4CCCN4C(=O)[C@@H](NC(=O)OC)[C@@H](C)OC)n5COP(=O)(O)O)N3c3cc(F)c(N4CCC(c5ccc(F)cc5)CC4)c(F)c3)cc2n1COP(=O)(O)O)[C@@H](C)OC`
> 1000 µg/mL

***
Suppose we examine the molecule `COC(=O)N[C@H](C(=O)N1CCC[C@H]1c1nc2cc(F)c([C@H]3CC[C@H](c4cc5nc([C@@H]6CCCN6C(=O)[C@@H](NC(=O)OC)[C@@H](C)OC)n(COC(=O)[C@@H](NC(=O)/C=C/C(=O)O)C(C)C)c5cc4F)N3c3cc(F)c(N4CCC(c5ccc(F)cc5)CC4)c(F)c3)cc2[nH]1)[C@@H](C)OC` ; what solubility thermodynamic value has been reported?
< 0.2 µg/mL

Quick check: solubility thermodynamic of `COC(=O)N[C@H](C(=O)N1CCC[C@H]1c1nc2cc([C@H]3CC[C@H](c4cc5nc([C@@H]6CCCN6C(=O)[C@@H](NC(=O)OC)[C@@H](C)OC)[nH]c5cc4F)N3c3cc(F)c(N4CCC(c5ccc(F)cc5)CC4)c(F)c3)c(F)cc2[nH]1)[C@@H](C)OC` ?
< 0.1 µg/mL

----------
test: Solubility in FeSSIF at pH 5; format: physicochemical
test readout: solubility

// returns reported solubility for input `COC(=O)N[C@H](C(=O)N1CCC[C@H]1c1nc2cc(F)c([C@H]3CC[C@H](c4cc5nc([C@@H]6CCCN6C(=O)[C@@H](NC(=O)OC)[C@@H](C)OC)n(COC(=O)[C@@H](N)C(C)C)c5cc4F)N3c3cc(F)c(N4CCC(c5ccc(F)cc5)CC4)c(F)c3)cc2[nH]1)[C@@H](C)OC`
> 1000 µg/mL

# input compound: `COC(=O)N[C@H](C(=O)N1CCC[C@H]1c1nc2cc(F)c([C@H]3CC[C@H](c4cc5nc([C@@H]6CCCN6C(=O)[C@@H](NC(=O)OC)[C@@H](C)OC)n(COC(=O)[C@@H](NC(=O)OCOP(=O)(O)O)C(C)C)c5cc4F)N3c3cc(F)c(N4CCC(c5ccc(F)cc5)CC4)c(F)c3)cc2[nH]1)[C@@H](C)OC` ; wanted: its solubility
> 1000 µg/mL

Would you mind telling me what solubility value was observed for `COC(=O)N[C@H](C(=O)N1CCC[C@H]1c1nc2cc(F)c([C@H]3CC[C@H](c4cc5nc([C@@H]6CCCN6C(=O)[C@@H](NC(=O)OC)[C@@H](C)OC)n(COC(=O)c6ccccc6COP(=O)(O)O)c5cc4F)N3c3cc(F)c(N4CCC(c5ccc(F)cc5)CC4)c(F)c3)cc2[nH]1)[C@@H](C)OC` ?
> 1000 µg/mL

Endpoint output: solubility of `COC(=O)N[C@H](C(=O)N1CCC[C@H]1c1nc2cc(F)c([C@H]3CC[C@H](c4cc5nc([C@@H]6CCCN6C(=O)[C@@H](NC(=O)OC)[C@@H](C)OC)n(COC(=O)CC(C)(C)c6c(C)cc(C)cc6OP(=O)(O)O)c5cc4F)N3c3cc(F)c(N4CCC(c5ccc(F)cc5)CC4)c(F)c3)cc2[nH]1)[C@@H](C)OC` . Value?
794 µg/mL

Need solubility, item `COC(=O)N[C@H](C(=O)N1CCC[C@H]1c1nc2cc(F)c([C@H]3CC[C@H](c4cc5c(cc4F)nc([C@@H]4CCCN4C(=O)[C@@H](NC(=O)OC)[C@@H](C)OC)n5COC(=O)[C@@H](NC(=O)OCOP(=O)(O)O)C(C)C)N3c3cc(F)c(N4CCC(c5ccc(F)cc5)CC4)c(F)c3)cc2[nH]1)[C@@H](C)OC`
> 1000 µg/mL

Requested read-out: solubility. Entry: `COC(=O)N[C@H](C(=O)N1CCC[C@H]1c1nc2cc(F)c([C@H]3CC[C@H](c4cc5c(cc4F)nc([C@@H]4CCCN4C(=O)[C@@H](NC(=O)OC)[C@@H](C)OC)n5COC(=O)c4ccccc4COP(=O)(O)O)N3c3cc(F)c(N4CCC(c5ccc(F)cc5)CC4)c(F)c3)cc2[nH]1)[C@@H](C)OC`
> 1000 µg/mL

Param item = `COC(=O)N[C@H](C(=O)N1CCC[C@H]1c1nc2cc(F)c([C@H]3CC[C@H](c4cc5nc([C@@H]6CCCN6C(=O)[C@@H](NC(=O)OC)[C@@H](C)OC)n(COC(=O)[C@@H](NC(=O)/C=C/C(=O)O)C(C)C)c5cc4F)N3c3cc(F)c(N4CCC(c5ccc(F)cc5)CC4)c(F)c3)cc2[nH]1)[C@@H](C)OC` ; retrieve measured solubility.
542 µg/mL

Which solubility reading was recorded for the compound `COC(=O)N[C@H](C(=O)N1CCC[C@H]1c1nc2cc(F)c([C@H]3CC[C@H](c4cc5nc([C@@H]6CCCN6C(=O)[C@@H](NC(=O)OC)[C@@H](C)OC)n(COC(=O)Cc6ccccc6OP(=O)(O)O)c5cc4F)N3c3cc(F)c(N4CCC(c5ccc(F)cc5)CC4)c(F)c3)cc2[nH]1)[C@@H](C)OC` ?
> 1000 µg/mL
